Test system: LXRa homodimer (NR concentration 270 nM)
assay notes: PBM binding z-score (relative to random genomic background probes); higher = stronger binding; sequences stand for … in GC…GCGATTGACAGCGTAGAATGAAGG
Quick rule for you: PBM binding z-score at 0.03 or higher means true (1), lower means false (0).

Worked examples follow.
AGAATGAGGTTAGGATCAGGGAAACAGAATACAT    false (0)
TCGAGCAGGTTAGGGGCATTCAGAATGGCGTCGA    false (0)
TCTGCTAGGTCAACGATGGTCAGCTTATCTGCTA    false (0)
GCTGCTAGGTCAGGTTAGTCAGCTAACGGGTACG    false (0)
TCTGCTAGGTCAATTGGTCAGCTAACGAGCTGCC    false (0)

Determine whether measured PBM binding z-score meets or exceeds 0.03 for TCTAGTTGGTTAAAGGTCACACACTCGAAATGCG
true (1)

Check CCTTACGGGTTAAGGTTATAGCACGGGTGGTACG too.
false (0)

Check AGAATGAGGGTACCAAAGATCAGGGAAACGCTTG too.
false (0)

Check ATCTCTAGGAAACCAAGTTCAGTGAATGCCGAAC too.
true (1)

Check ACAGACAGGTGAAGAAGGTAACTCAGGCTATCAT too.
false (0)

Check ATATGTAGGTTACATCCGGGTCATTCAAGCTATG too.
true (1)

Check GGCACGAGGGCAAGTTGATAGCAGAGTTTGATGG too.
false (0)

Check CCTACTGGGACATCAGGTCATTGATATCAACGTT too.
true (1)

###

System: THRa homodimer (NR concentration 90 nM)
assay notes: PBM binding z-score (relative to random genomic background probes); higher = stronger binding; sequences stand for … in GC…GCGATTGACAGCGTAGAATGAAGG
Quick rule for you: PBM binding z-score at 1 or higher means true, lower means false.

Worked examples follow.
AGAACGAGGGCACGCTGACTTGATAGCAGAGTAG    false
TCGAGTAGGTTAGGGGCATTCACAATGGCGTCGA    false
ATCTCTAGGTAAAAGTTCAATGAATCCCGAGGAT    false

Determine whether measured PBM binding z-score meets or exceeds 1 for ATCGAAAGGTCGAAGGTGAGGATACCCACCCGAA
true

Check CAAACTAGGTCAAGAGGTCAAAGACCGCTTCCCG too.
true

Check AGAATGAGGTTATACGTAGATGAGGGAAGAAAGT too.
false

Check CTACCAAGGTGAACAAGGTCGTAGATTACTATTC too.
true

Check CCAGACAGGTGAGAAGGTAACTCCGCCTCGATTA too.
false

Check CAGCCTAGGACAGGGCCAGTATAGGAGGAACGTT too.
false

Check ATCGAAAGGTCGCCGAGGTGAGTATACACCGTTT too.
true

Check TCTGCTAGGTCAACGATGGTCAGGTAATCTGCTA too.
true

Check ACTTACGGGTCAACGAGGTTATAGCCCGCGTATA too.
true

###

Tested on: RARg homodimer (NR concentration 270 nM)
assay notes: PBM binding z-score (relative to random genomic background probes); higher = stronger binding; sequences stand for … in GC…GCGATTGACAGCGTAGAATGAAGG
property: PBM binding z-score
Respond using a number only.

Below are worked cases with known answers.
CCTCGGAGAACAGAAGGTCAGAGCTGTCCGCTTT    1.99
GCAGACGGGTGAAACGCAGGTAACTCAGGGTGGC    -0.283
CCTACTGGGCCATAAAGGTCATTGATGCCGATAA    3.88

Returns the measured PBM binding z-score for the input sequence. Input: GGAACGAGGCCAAGTTGATAGCAGAGTTTGATGG
1.03

Check TCAGACAGGAGAAGGTAACTCAGGTACGCAGTCG too.
0.356

Check ATCTCTAGGAAAAAGTTCAGTGAATCCCGAGGAT too.
1.4

Check CCTAGTTGGTCAGGAGGTCATACACCGGATATGA too.
3.35

Check GCCGCTAGGTCAACTGATGGTCAGCTAAAGCTCG too.
5.22

Check ACAGACAAGTGATGAAGGTAACTCAGGCTATCAT too.
0.277

Check GATACAGGGTCAGCGAGAGGCCAGAGTATGGAAA too.
4.48

Check CCGACTGGGGCAAGGTTACCAGAACGCACAGCCA too.
1.27
